- protocol: Binding affinity of compound against endothiapepsin
property: Ki (nM)

I: CC(C)CC(NC(=O)CC(O)C(CC1CCCCC1)NC(=O)CCC(O)C(Cc1ccccc1)NC(=O)OC(C)(C)C)C(=O)NCc1cccc(CN)c1 (centres undefined)
II: CCC(C)CNC(=O)CP(=O)(O)C(CC(C)C)NC(=O)C(Cc1c[nH]cn1)NC(=O)C(Cc1ccccc1)NC(=O)OC(C)(C)C (centres undefined)
III: CCSC(NC(=O)[C@H](Cc1ccccc1)NS(=O)(=O)N1CCOCC1)C(=O)N[C@@H](CC1CCCCC1)[C@@H](O)[C@@H](O)CC(C)C (some centres undefined)
Your job: order these 3 records by Ki, ascending. Ranked list of labels, please, in the requested order. III, II, I
